- tested_on: Human immunodeficiency virus type 1 integrase (Human immunodeficiency virus 1)
- Sequence (Q7ZJM1 whole entry): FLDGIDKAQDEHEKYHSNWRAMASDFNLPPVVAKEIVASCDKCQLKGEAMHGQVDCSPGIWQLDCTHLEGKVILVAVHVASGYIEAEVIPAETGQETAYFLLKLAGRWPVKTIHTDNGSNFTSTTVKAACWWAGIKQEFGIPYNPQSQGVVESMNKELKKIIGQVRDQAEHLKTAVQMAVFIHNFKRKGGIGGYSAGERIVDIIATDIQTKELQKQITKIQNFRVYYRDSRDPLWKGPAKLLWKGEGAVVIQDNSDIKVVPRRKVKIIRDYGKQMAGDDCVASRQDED
- measurement_description: Inhibition of strand transfer activity of HIV-1 integrase using [gamma-32P]-labeled DNA as substrate
pIC50: −log10 of the molar value.
pIC50 values, listed per item
reported_metric: pIC50

{"columns": ["structure_smiles", "reported_metric", "result"],
 "data": [
  ["O=C(NCc1ccc(F)cc1F)c1c(N2CCOCC2)c2cccnc2n(O)c1=O", "pIC50", 7.10],
  ["O=C(NCc1ccc(F)cc1F)c1c(NCCO)c2cccnc2n(O)c1=O", "pIC50", 8.00],
  ["COC(=O)CNc1c(C(=O)NCc2ccc(F)cc2F)c(=O)n(O)c2ncccc12", "pIC50", 7.68],
  ["CC(=O)OCCNc1c(C(=O)NCc2ccc(F)cc2F)c(=O)n(O)c2ncccc12", "pIC50", 7.57],
  ["Nc1ccc(-c2ccc(Nc3c(C(=O)NCc4ccc(F)cc4F)c(=O)n(O)c4ncccc34)cc2)cc1", "pIC50", 6.89]
]}
